Recorded Genotoxicity test, Without S9 rat liver extract, Bscl 2, 10, one value per entry.
Tested on: Bscl2-GFP
MEASUREMENT PROTOCOL: ToxTracker genotoxicity assay, Bscl2-GFP reporter induction
ASSAY SETUP: GFP induction vs vehicle at 10% cytotoxicity; 24 h exposure, no S9
VALUE KIND: Genotoxicity test, Without S9 rat liver extract, Bscl 2, 10 (fold)

- COMPOUND: "CCC(CN1CC1C)OC(=O)NCCCCCCn1c(=O)n(CCCCCCNC(=O)OC(CC)CN2CC2C)c(=O)n(CCCCCCNC(=O)OC(CC)CN2CC2C)c1=O (stereo not drawn) [Ex. 7]"
  MEASUREMENT: 1.1
- COMPOUND: "CCCCOCC(CN1CC1C)OC(=O)NCCCCCCNC(=O)OC(COCCCC)CN1CC1C (stereo not drawn) [Comp. Ex. 10, reference compound]"
  MEASUREMENT: 1.3
- COMPOUND: "CC(CN1CC1C)OC(=O)NC(C)(C)c1cccc(C(C)(C)NC(=O)OC(C)CN2CC2C)c1 (stereo not drawn) [Comp. Ex. 8, reference compound]"
  MEASUREMENT: 1.2

* * *

Tested on: Rtkn-GFP
MEASUREMENT PROTOCOL: ToxTracker genotoxicity assay, Rtkn-GFP reporter induction
ASSAY SETUP: GFP induction vs vehicle at 50% cytotoxicity; 3 h exposure with S9, 24 h recovery
VALUE KIND: Genotoxicity test, With S9 rat liver extract, Rtkn, 50 (fold)

- MOLECULE: "CCCCOCC(CN1CC1C)OC(=O)Nc1ccc(C)c(NC(=O)OC(COCCCC)CN2CC2C)c1 (stereo not drawn) [Comp. Ex. 11, reference compound]"
  UNIT TEXT: "fold"
  MEASUREMENT: 2.5
- MOLECULE: "CC(CN1CC1C)OC(=O)NCC1(C)CC(NC(=O)OC(C)CN2CC2C)CC(C)(C)C1 (stereo not drawn) [Comp. Ex. 7, reference compound]"
  UNIT TEXT: "fold"
  MEASUREMENT: 3.5
- MOLECULE: "CC(CN1CC1C)OC(=O)NC(C)(C)c1cccc(C(C)(C)NC(=O)OC(C)CN2CC2C)c1 (stereo not drawn) [Comp. Ex. 8, reference compound]"
  UNIT TEXT: "fold"
  MEASUREMENT: 4.9
- MOLECULE: "CCCCCCCCCC(=O)OCC(CN1CC1C)OC(=O)NC1CCC(CC2CCC(NC(=O)OC(COC(=O)CCCCCCCCC)CN3CC3C)CC2)CC1 (stereo not drawn)"
  UNIT TEXT: "fold"
  MEASUREMENT: 1.2
- MOLECULE: "CC(OC(=O)NCCCCCCn1c(=O)n(CCCCCCNC(=O)OC(C)C(C)N2CC2C)c(=O)n(CCCCCCNC(=O)OC(C)C(C)N2CC2C)c1=O)C(C)N1CC1C (stereo not drawn)"
  UNIT TEXT: "fold"
  MEASUREMENT: 1.3
- MOLECULE: "CCCCOCC(CN1CC1C)OC(=O)NCCCCCCNC(=O)OC(COCCCC)CN1CC1C (stereo not drawn) [Comp. Ex. 10, reference compound]"
  UNIT TEXT: "fold"
  MEASUREMENT: 2.2
- MOLECULE: "CCCCC(CC)COCC(CN1CC1C)OC(=O)NCCCCCCn1c(=O)n(CCCCCCNC(=O)OC(COCC(CC)CCCC)CN2CC2C)c(=O)n(CCCCCCNC(=O)OC(COCC(CC)CCCC)CN2CC2C)c1=O (stereo not drawn)"
  UNIT TEXT: "fold"
  MEASUREMENT: 1.1
- MOLECULE: "CC(CN1CC1C)OC(=O)NC1CCC(CC2CCC(NC(=O)OC(C)CN3CC3C)CC2)CC1 (stereo not drawn) [Comp. Ex. 9, reference compound]"
  UNIT TEXT: "fold"
  MEASUREMENT: 3.7
- MOLECULE: "CC1CN1C1CCCCC1OC(=O)NCCCCCCn1c(=O)n(CCCCCCNC(=O)OC2CCCCC2N2CC2C)c(=O)n(CCCCCCNC(=O)OC2CCCCC2N2CC2C)c1=O (stereo not drawn)"
  UNIT TEXT: "fold"
  MEASUREMENT: 1.3
